biological target: histone deacetylase (HeLa nuclear extracts); assay: In vitro assay for inhibition of histone deacetylase with [3H]-labelled substrate (C.1.a); format: biochemical; settings: [3H]-acetylated histone H4 peptide substrate
quantity: Enzymatic activity pIC50 C.1.a.

**Q:** Write down Enzymatic activity pIC50 C.1.a. measured for item O=C(NO)c1cnc(N2CCC(CNCCc3c[nH]c4ccccc34)CC2)nc1
**A:** 8.6

**Q:** Answer with the recorded Enzymatic activity pIC50 C.1.a. for the molecule listed here: CN(CCc1c[nH]c2ccccc12)CC1CCN(c2ncc(C(=O)NO)cn2)CC1
**A:** 8.5

**Q:** Specify measured Enzymatic activity pIC50 C.1.a. for Cn1cc(CNC2CCN(c3ncc(C(=O)NO)cn3)CC2)c2ccccc21 .
**A:** 8.2

**Q:** Given O=C(NO)c1cnc(N2CCC(NCc3c[nH]c4ccccc34)CC2)nc1 , respond with its Enzymatic activity pIC50 C.1.a..
**A:** 8.5
